# System: Wnt5a (protein binding on small-molecule microarray)
# assay overview: Wnt5a binders on small-molecule microarray, primary screen, biophysical, 635/667 nm fluorescence (AID 1142);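 note: fluorescence read at 667 nm with signal to noise per printed feature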
# run parameters: 635 nm fluorescence, higher = more signal
# binarize composite z-score: threshold 0.3 inclusive, high side class 1, low side class 0

Answered examples (3):
>>> label_class("C=CCOC(=O)[C@H]1[C@@H]2C(=O)O[C@@H](c3ccccc3)[C@@H](c3ccccc3)N2[C@@H](c2ccc(OCCOC(=O)[C@H]3C[C@H]4C(=O)N[C@@H](CC(C)C)C(=O)N4[C@H]3c3ccc(O)cc3)cc2)[C@]12C(=O)Nc1ccc(I)cc12")
"class 1"
>>> label_class("CN1C(=O)[C@]2(Cc3ccccc3)N=C(c3ccc(OCCCO)cc3)O[C@@H]2c2ccccc21")
"class 1"
>>> label_class("CN1C(=O)C2C=CC(C(O)C3CCCCC3)N(Nc3ccc([N+](=O)[O-])cc3[N+](=O)[O-])C2C1=O (stereo unspecified)")
"class 1"

Is composite z-score for O=C1NC(=O)C2C1C=CC(C(O)c1ccccc1)N2Nc1ccc(Cl)cc1Cl (stereo unspecified) at or above 0.3? class 1

Further, for `CC(C)(C)OC(=O)CC[C@@]12N=C(c3ccc(OCCCO)cc3)O[C@@H]1c1ccccc1N(CCS(=O)(=O)c1ccccc1)C2=O` ? class 0

Another compound: `COCCOC(=O)N1C(=O)[C@@]2(c3cc(C#CCCO)ccc31)[C@H](C(=O)Nc1nc3ccccc3s1)[C@H]1C(=O)O[C@H](c3ccccc3)[C@H](c3ccccc3)N1[C@@H]2c1ccc(OCCO)cc1` class 0

Source: PubChem BioAssay
